These entries and their values trace back to patent US20250228824A1.

# Tested system: Nav1.5 (peak INa) (Homo sapiens)
# Construct: expressed in transfected cells; host or cells: HEK cells, transfected with Lipofectamine 2000
# Sequence (Q14524 whole entry): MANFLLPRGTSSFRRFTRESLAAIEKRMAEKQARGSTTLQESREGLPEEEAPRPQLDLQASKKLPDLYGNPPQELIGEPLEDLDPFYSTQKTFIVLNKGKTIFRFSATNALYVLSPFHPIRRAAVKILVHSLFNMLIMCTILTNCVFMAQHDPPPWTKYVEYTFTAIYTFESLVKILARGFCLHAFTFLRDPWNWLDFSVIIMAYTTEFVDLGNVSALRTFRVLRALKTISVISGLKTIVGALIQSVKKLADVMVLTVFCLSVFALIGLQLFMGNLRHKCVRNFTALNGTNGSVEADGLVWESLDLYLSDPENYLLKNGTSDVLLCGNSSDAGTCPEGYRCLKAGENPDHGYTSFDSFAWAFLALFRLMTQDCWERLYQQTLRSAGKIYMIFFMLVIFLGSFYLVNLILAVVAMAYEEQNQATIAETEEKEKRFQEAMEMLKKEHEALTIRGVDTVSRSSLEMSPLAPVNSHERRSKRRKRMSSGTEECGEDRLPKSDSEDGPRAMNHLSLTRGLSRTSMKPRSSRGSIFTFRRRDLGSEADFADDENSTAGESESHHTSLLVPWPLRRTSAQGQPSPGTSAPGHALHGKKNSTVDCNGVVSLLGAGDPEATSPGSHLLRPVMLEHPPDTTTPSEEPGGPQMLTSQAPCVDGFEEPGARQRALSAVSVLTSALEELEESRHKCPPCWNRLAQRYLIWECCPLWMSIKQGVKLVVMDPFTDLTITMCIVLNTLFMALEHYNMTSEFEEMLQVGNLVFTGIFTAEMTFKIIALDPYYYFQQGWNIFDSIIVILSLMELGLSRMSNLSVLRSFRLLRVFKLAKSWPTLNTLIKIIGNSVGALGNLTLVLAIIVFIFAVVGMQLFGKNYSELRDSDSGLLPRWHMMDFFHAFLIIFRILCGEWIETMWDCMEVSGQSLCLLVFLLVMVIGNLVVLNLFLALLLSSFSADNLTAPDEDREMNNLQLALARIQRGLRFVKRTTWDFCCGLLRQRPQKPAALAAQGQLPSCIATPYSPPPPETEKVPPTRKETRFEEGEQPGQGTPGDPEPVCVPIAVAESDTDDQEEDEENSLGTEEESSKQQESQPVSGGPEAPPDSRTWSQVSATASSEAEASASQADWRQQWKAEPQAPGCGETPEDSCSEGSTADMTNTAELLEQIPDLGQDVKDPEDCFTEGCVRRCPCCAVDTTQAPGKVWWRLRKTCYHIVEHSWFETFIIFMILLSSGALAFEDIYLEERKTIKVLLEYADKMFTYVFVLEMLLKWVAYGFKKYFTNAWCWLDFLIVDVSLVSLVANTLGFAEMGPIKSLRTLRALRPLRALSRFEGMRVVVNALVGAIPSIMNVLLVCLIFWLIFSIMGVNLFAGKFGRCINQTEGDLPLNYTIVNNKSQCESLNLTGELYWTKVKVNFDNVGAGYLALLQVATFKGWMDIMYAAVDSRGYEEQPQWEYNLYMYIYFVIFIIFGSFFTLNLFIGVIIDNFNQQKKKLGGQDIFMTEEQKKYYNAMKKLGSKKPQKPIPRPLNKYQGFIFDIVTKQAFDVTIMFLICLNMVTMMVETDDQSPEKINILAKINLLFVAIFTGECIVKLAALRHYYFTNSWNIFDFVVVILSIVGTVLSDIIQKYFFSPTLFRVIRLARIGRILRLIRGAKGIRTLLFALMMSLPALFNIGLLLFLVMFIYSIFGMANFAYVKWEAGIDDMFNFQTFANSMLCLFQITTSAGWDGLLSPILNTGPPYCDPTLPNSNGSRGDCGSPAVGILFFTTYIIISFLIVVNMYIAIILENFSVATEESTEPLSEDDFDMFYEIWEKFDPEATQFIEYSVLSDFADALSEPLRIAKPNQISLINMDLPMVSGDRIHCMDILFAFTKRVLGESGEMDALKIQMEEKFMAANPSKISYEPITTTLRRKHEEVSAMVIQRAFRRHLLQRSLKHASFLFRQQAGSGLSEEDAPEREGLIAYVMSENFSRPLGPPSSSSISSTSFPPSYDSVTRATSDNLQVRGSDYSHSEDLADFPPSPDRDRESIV
# Sequence (Q07699 19-218 partner): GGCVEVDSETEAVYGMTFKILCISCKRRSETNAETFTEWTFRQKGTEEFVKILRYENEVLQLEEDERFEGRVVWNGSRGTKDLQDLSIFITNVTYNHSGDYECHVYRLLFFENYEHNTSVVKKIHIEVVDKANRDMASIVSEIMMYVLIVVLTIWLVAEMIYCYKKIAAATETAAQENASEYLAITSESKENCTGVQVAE
# Test name: Automated patch clamp (Qube-384) of INa in HEK cells transfected with SCN5A+SCN1B
# Assay type: cell-based
# Reported conditions: human, pH 7.4; 50 μM; holding potential −90 mV
Property: inhibition at 50 µM (%)

>>> data_value("Cc1nc(-n2cccc2)sc1C(=O)N=c1[nH]c2ccccc2[nH]1")
80
